Target: GST-Aq-NF-kB (Amphimedon queenslandica, UniProt A9Y5G7 2-389)
Sequence: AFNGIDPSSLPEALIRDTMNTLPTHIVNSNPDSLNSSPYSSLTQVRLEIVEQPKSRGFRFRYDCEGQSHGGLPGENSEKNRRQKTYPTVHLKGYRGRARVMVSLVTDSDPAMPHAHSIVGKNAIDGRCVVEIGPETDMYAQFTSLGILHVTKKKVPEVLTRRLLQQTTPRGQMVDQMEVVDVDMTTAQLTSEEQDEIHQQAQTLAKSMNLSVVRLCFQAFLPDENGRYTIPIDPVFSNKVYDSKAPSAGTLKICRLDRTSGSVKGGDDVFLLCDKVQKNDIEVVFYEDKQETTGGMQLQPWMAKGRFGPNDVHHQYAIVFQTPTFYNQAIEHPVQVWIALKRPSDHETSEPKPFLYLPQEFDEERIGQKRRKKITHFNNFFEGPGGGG
Assay: protein-binding microarray (PBM); PBM: ~300 nM protein, 6 mM HEPES pH 7.8, 80 mM KCl, 0.5 mM EDTA, 0.5 mM EGTA, 6% glycerol, 35 ng/ul poly-dIdC, 1% milk, 1 h, room temperature; high values mean tight binding
Settings: dsDNA, one strand shown
Measured binding signal of individual entries
Write down the numeric answer in z-score and omit the unit.

Sample answers from the record:
SEQUENCE: CCGATTAACATCAAGGCATTCCCTGATGTTAATCGGGTCTTGATTCGCTTGACGCTGCTG
binding signal / z-score: 3.27
//
SEQUENCE: CCGATTAACATCAGGGAGGCCCCTGATGTTAATCGGGTCTTGATTCGCTTGACGCTGCTG
binding signal / z-score: 7.2
//
SEQUENCE: CCGATTAACATCAGGGGGTTCACTGATGTTAATCGGGTCTTGATTCGCTTGACGCTGCTG
binding signal / z-score: 5.84

INPUT: Given "CCGATTAACATCACAAAATTCCCTGATGTTAATCGGGTCTTGATTCGCTTGACGCTGCTG" , state its recorded binding signal.
OUTPUT: 6.82

INPUT: Would you kindly repeat that for "CCGATTAACATCAGGTAACTACCTGATGTTAATCGGGTCTTGATTCGCTTGACGCTGCTG" ?
OUTPUT: 3.17

INPUT: Field entry: "CCGATTAACATCAAACAGGGAAATGATGTTAATCGGGTCTTGATTCGCTTGACGCTGCTG"
OUTPUT: 3.23

INPUT: Another sequence: "CCGATTAACATCAGGCATACCCCTGATGTTAATCGGGTCTTGATTCGCTTGACGCTGCTG"
OUTPUT: 3.12

INPUT: Then what about the sequence "CCGATTAACATCACCCTCCCCCCTGATGTTAATCGGGTCTTGATTCGCTTGACGCTGCTG" ?
OUTPUT: 3.9

* * *

# binding signal listing for each entry below
Biological target: GST-Co-NF-kB (Capsaspora owczarzaki, UniProt F1ARL5 200-546)
Sequence: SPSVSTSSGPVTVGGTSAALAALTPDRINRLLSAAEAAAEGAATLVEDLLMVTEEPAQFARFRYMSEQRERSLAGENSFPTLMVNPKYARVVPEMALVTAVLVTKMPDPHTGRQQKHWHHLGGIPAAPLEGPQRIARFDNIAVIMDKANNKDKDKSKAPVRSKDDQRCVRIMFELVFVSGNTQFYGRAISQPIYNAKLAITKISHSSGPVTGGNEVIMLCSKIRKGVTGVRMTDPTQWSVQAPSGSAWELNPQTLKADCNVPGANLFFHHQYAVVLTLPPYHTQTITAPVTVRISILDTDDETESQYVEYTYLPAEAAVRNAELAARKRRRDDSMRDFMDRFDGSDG
Assay: protein-binding microarray (PBM); PBM: ~300 nM protein, 6 mM HEPES pH 7.8, 80 mM KCl, 0.5 mM EDTA, 0.5 mM EGTA, 6% glycerol, 35 ng/ul poly-dIdC, 1% milk, 1 h, room temperature; high values mean tight binding
Settings: dsDNA, one strand shown
# number only, unit z-score dropped from output

Would you please look over these solved cases?
SEQUENCE: CCGATTAACATCACGATTTTCCCTGATGTTAATCGGGTCTTGATTCGCTTGACGCTGCTG
binding signal / z-score: 4.9
//
SEQUENCE: CCGATTAACATCAAAATTTCCCGTGATGTTAATCGGGTCTTGATTCGCTTGACGCTGCTG
binding signal / z-score: 6.32
//
SEQUENCE: CCGATTAACATCAGGGCTTCCCCTGATGTTAATCGGGTCTTGATTCGCTTGACGCTGCTG
binding signal / z-score: 4.03

INPUT: Any idea what binding signal was measured for "CCGATTAACATCACACCACCCCCTGATGTTAATCGGGTCTTGATTCGCTTGACGCTGCTG" ?
OUTPUT: 2.88

* * *

Molecular target: GST-Dm-Relish (Drosophila melanogaster, UniProt Q94527 99-473)
Sequence: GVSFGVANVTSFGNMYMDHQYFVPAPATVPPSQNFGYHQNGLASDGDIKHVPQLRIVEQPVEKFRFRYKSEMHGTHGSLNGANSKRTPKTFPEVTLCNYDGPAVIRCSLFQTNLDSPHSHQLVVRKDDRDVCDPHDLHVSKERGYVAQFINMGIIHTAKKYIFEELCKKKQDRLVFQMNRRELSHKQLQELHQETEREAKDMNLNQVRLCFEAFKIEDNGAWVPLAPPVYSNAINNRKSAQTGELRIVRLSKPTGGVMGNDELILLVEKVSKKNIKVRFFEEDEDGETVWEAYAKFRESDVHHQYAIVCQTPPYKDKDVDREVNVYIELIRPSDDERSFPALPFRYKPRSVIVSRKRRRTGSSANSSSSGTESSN
Test: protein-binding microarray (PBM); PBM: ~300 nM protein, 6 mM HEPES pH 7.8, 80 mM KCl, 0.5 mM EDTA, 0.5 mM EGTA, 6% glycerol, 35 ng/ul poly-dIdC, 1% milk, 1 h, room temperature; high values mean tight binding
Settings: dsDNA, one strand shown
As shown below, each of these sequences has a reported binding signal value.
Give the value in z-score but do not write z-score after it.

Here's what some known entries look like.
SEQUENCE: CCGATTAACATCAAGTTTCCCCCTGATGTTAATCGGGTCTTGATTCGCTTGACGCTGCTG
RESULT UNIT: z-score
binding signal: 4.83
--
SEQUENCE: CCGATTAACATCAGGGGAAAAGATGATGTTAATCGGGTCTTGATTCGCTTGACGCTGCTG
RESULT UNIT: z-score
binding signal: 1.82
--
SEQUENCE: CCGATTAACATCAGGGACTTTACTGATGTTAATCGGGTCTTGATTCGCTTGACGCTGCTG
RESULT UNIT: z-score
binding signal: 7.99
--
SEQUENCE: CCGATTAACATCACGAGTTTCCCTGATGTTAATCGGGTCTTGATTCGCTTGACGCTGCTG
RESULT UNIT: z-score
binding signal: 1.16
--
SEQUENCE: CCGATTAACATCAGACATTCCCCTGATGTTAATCGGGTCTTGATTCGCTTGACGCTGCTG
RESULT UNIT: z-score
binding signal: 4.78

INPUT: Entry under review: "CCGATTAACATCAGGGGGGACAATGATGTTAATCGGGTCTTGATTCGCTTGACGCTGCTG" . Reported binding signal?
OUTPUT: 2.95

INPUT: Further, for "CCGATTAACATCAGGCAATTCCCTGATGTTAATCGGGTCTTGATTCGCTTGACGCTGCTG" ?
OUTPUT: 2.03

INPUT: Consider next the sequence "CCGATTAACATCAGAATATTCCCTGATGTTAATCGGGTCTTGATTCGCTTGACGCTGCTG" in the same way.
OUTPUT: 3.01

INPUT: Now try "CCGATTAACATCACATATACCCCTGATGTTAATCGGGTCTTGATTCGCTTGACGCTGCTG" .
OUTPUT: 1.34

* * *

Target: GST-Ap-NF-kB RHD (Exaiptasia pallida (Aiptasia), UniProt A0A913YAJ5 2-422)
Sequence: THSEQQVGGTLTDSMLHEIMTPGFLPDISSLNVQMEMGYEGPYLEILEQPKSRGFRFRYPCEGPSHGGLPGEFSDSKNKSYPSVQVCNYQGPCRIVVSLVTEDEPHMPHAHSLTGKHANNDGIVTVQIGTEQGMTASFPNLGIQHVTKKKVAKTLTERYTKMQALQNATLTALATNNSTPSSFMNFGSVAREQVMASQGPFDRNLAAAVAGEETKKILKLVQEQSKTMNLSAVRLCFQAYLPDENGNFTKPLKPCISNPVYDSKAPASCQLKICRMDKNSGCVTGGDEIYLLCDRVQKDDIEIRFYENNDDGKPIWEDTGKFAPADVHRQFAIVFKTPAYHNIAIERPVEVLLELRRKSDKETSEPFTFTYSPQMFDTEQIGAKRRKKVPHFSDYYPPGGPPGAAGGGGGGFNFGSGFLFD
Test: protein-binding microarray (PBM); PBM: ~300 nM protein, 6 mM HEPES pH 7.8, 80 mM KCl, 0.5 mM EDTA, 0.5 mM EGTA, 6% glycerol, 35 ng/ul poly-dIdC, 1% milk, 1 h, room temperature; Ap Aiptasia and Nv Nematostella (sea anemones) / Co Capsaspora / Aq Amphimedon (sponge) / Dm Drosophila / Hu human; RHD is the Rel homology domain; high values mean tight binding
Details: dsDNA, one strand shown
MEASUREMENT TYPE: binding signal (z-score)
# value in z-score; strip the unit string

See these solved cases before continuing.
SEQUENCE: CCGATTAACATCACGGTTTTCCCTGATGTTAATCGGGTCTTGATTCGCTTGACGCTGCTG
binding signal, z-score: 3.99

SEQUENCE: CCGATTAACATCAGGAGAACCCCTGATGTTAATCGGGTCTTGATTCGCTTGACGCTGCTG
binding signal, z-score: 4

Now for a further sequence.
INPUT: For the sequence shown here, "CCGATTAACATCAGAAATGCCCCTGATGTTAATCGGGTCTTGATTCGCTTGACGCTGCTG" , give the reported binding signal.
OUTPUT: 4.03
